# Tested on: HT29 colon
# experiment: NCI-60 one-dose screen, 48 h (100 = growth as untreated, 0 = no growth, -100 = all killed)
# condition summary: 10 µM
This is part of a sample that, as a whole, favours compounds with a hit. Of some 83,000 tested, about 20% had one in any assay.
measure name: growth (%)
Numeric only. Scale: %

GET /values?readout=growth&item= "CCCCSc1nc(Nc2ccc(/C(C)=N/NC(N)=S)cc2)c(C#N)c(-c2ccc(OC)cc2)n1" 86.7

Which growth is reported for this compound? "COc1cc(-c2nc3cc(Cl)c(Cl)cc3[nH]2)ccc1OCc1nnc(-c2ccc(Br)cc2)o1" 10

Entry "COc1ccc(C(=O)CSc2nnc(-c3c[nH]c4ccccc34)n2-c2ccccc2)cc1" : reported growth = ? 83.1

Fill blank: measured growth of the compound "N#Cc1c(NC(=O)c2cccc(C(F)(F)F)c2)sc2c1CCC(O)=C2" is ____. 80.4

GET /values?readout=growth&item= "Cc1ccc(C(=O)CSc2nnc(-c3c[nH]c4ccccc34)n2-c2ccccc2)cc1" 7.13

I have this compound here, "C/C(=C\c1ccc(O)cc1O)c1ccc2ccc(O)cc2[o+]1" , and I need its recorded growth. 93.1

GET /values?readout=growth&item= "Brc1ccc(/C=C/c2n(Cc3ccc4ccccc4c3)c3ccccc3[n+]2Cc2ccc3ccccc3c2)cc1" -87

Any idea what its growth is? The compound is "O=C(NO)c1ccc(CN2CCN(c3nc(-c4ccccc4)c4ccccc4n3)CC2)cc1" 30.4

What growth value was documented for this compound, "COc1ccc(N(C)c2cc(C#N)nc3ccccc23)cc1N" ? -22.1

growth for "Cc1noc2c(Cc3ccccc3)nn(CC(=O)N/N=C/c3ccc(Br)cc3)c(=O)c12" ? 71.1

Which measured growth value corresponds to "COc1ccc(C(=O)/C=C/c2ccc(Cl)c(C(F)(F)F)c2)cc1S(N)(=O)=O" ? -76.9

Would you mind telling me what growth value was observed for "CCN1CCN(c2ccc(NC(=O)Nc3ccc4c(c3F)CCN4c3ccnc(C(=O)NC)c3)cc2C(F)(F)F)CC1" ? -79

What value of growth has been recorded for this entry: "COc1cc(NC(=O)CSc2nnc(-c3ccc4nc(-c5ccc(Cl)cc5)[nH]c4c3)o2)cc(OC)c1OC" 61.7

Entry "CN1CCN(c2ccc(C(=O)/C=C/c3cc(Br)ccc3F)cc2)CC1" has what growth? -13.2

What does the data say about its growth? Entry: "CS(=O)(=O)Nc1ccc(-c2ccc3c(c2)ncn3-c2ccc(NC(=O)Nc3ccc(Cl)c(C(F)(F)F)c3)cc2)cc1" -84.1

Could you share which growth value was measured for "O=C(Nc1ccc(I)cc1F)c1cc(-c2ccc(F)cc2F)ccc1O" ? 17

Quick one: growth for "Cc1ccc(/C=C(\C#N)n2nnc3c(F)cccc32)cc1" ? 2.75

# query: growth of entry "Nc1nnc(-c2c[nH]c3ccc(F)cc23)c(-c2c[nH]c3ncccc23)n1" 59.5

Item "Nc1n[nH]c2cccc(C#Cc3cccc(NC(=O)Nc4cc(C(F)(F)F)cc(C(F)(F)F)c4)c3)c12" has what recorded growth? -49.7

I am curious: what growth value has been reported for "CCOC(=O)CNC(=O)CN(Cc1ccccc1)C(=O)[C@@]1(C)CCC[C@]2(C)[C@H]3CC4C(C(C)C)=C[C@]3(CC[C@H]21)[C@@H]1C(=O)CCC(=O)[C@H]41" ? 41.1

What growth value was documented for this compound, "O=C(CNc1nc(-c2ccccc2)cs1)Nc1ccc([N+](=O)[O-])cc1" ? -44.9

Can you look up the measured growth of "C/C(=N\N=C\c1ccc(N(C)C)cc1)c1ccc2c(c1)Nc1ccccc1S2" for me? 52.5

Item under review: CN1C(=O)N(C)C2SC(N/N=C/c3ccccc3)=NC21 (stereo not given) . Reported growth? 38.5

For the compound CN1C(=O)N(C)C2SC(N/N=C/c3cccs3)=NC21 (stereo not given) , what growth is on record? 7.66

Look up growth: "O=C(Nc1ccc(OCc2ccccc2)cc1)Nc1ccc(Cl)c(C(F)(F)F)c1" 6.91
